Values compiled from PubChem BioAssay (NCI).

I'd be grateful if you could share measured TGI for these entries.
# Tested on: CCRF-CEM leukemia
# MEASUREMENT_DESCRIPTION: NCI tumour cell line growth inhibition, 48 h

### Prompt Would you kindly share the measured TGI for Cc1c(S(=O)(=O)/N=C(\NO)Nc2ccc(Cl)c(Cl)c2)sc2ccc(Cl)cc12 ?
### Response > 100 µM

### Prompt Would you kindly share the measured TGI for CSc1ncnc2c1ncn2C1CC(Oc2ccc(C)cc2)C(COc2ccc(C)cc2)O1 (stereo not given) ?
### Response > 100 µM

### Prompt Would you kindly share the measured TGI for CCCCN1C(=O)N(c2ccc(OCC)cc2)C2N(CCCC)C1C(C)(C)C2(C)C (stereo not given) ?
### Response 63.7 µM

### Prompt Would you kindly share the measured TGI for COc1ccccc1CCc1cc(OC)c(OC)c(OC)c1 ?
### Response > 100 µM

### Prompt Would you kindly share the measured TGI for O=C(NNC(=S)Nc1cccc(Cl)c1)c1cc(-c2ccccc2)nc2ccccc12 ?
### Response 32.2 µM

### Prompt Would you kindly share the measured TGI for COc1ccccc1/C=C1\SC(=S)N(/C=C2\C(=O)Oc3ccccc3C2=O)C1=O ?
### Response > 100 µM

### Prompt Would you kindly share the measured TGI for Cc1ccc(/C=C2\CCCc3ccccc3C2=O)cc1 ?
### Response 36.5 µM

### Prompt Would you kindly share the measured TGI for COc1ccc(C(=C(Cl)c2ccccc2)c2ccc(OC)cc2)cc1 ?
### Response > 100 µM

### Prompt Would you kindly share the measured TGI for CC1=NNC(N)=N/C1=C\C(Sc1ccc(Cl)cc1)c1ccc([N+](=O)[O-])cc1 (stereo not given) ?
### Response > 100 µM

### Prompt Would you kindly share the measured TGI for O=Cc1c(C(=O)O)[nH]c(=O)[nH]c1=O ?
### Response > 100 µM

* * *

# Test system: MALME-3M melanoma
# MEASUREMENT_DESCRIPTION: NCI tumour cell line growth inhibition, 48 h; in the data active = GI50 below about 0.43 µM; inactive = the rest
Entry note: the call must match one of T = active, F = inactive

### Prompt Would you mind telling me which call this test gave COc1ccc(Nc2c3ccccc3nc3occc23)cc1 ?
### Response F

### Prompt Would you mind telling me which call this test gave CCCCCCCC/C=C/CCCCCCCC(=O)OC[C@H]1O[C@@H](n2ccc(N)nc2=O)C(F)(F)[C@@H]1O ?
### Response T

### Prompt Would you mind telling me which call this test gave CN1C/C=C\CCOc2cccc(c2)-c2ccnc(n2)Nc2cccc(c2)C1 ?
### Response T

### Prompt Would you mind telling me which call this test gave CN1CCN(CCCOc2ccc3nc(Nc4ccc(Cl)c(C(F)(F)F)c4)ccc3c2)CC1 ?
### Response F

### Prompt Would you mind telling me which call this test gave c1cc(CNC23CC4CC(CC(C4)C2)C3)cc(C[N+](Cc2cccc(CNC34CC5CC(CC(C5)C3)C4)c2)(Cc2cccc(CNC34CC5CC(CC(C5)C3)C4)c2)Cc2cccc(CNC34CC5CC(CC(C5)C3)C4)c2)c1 (centres undefined) ?
### Response F

### Prompt Would you mind telling me which call this test gave CCOC(=O)[C@@H](N)CCC(=O)N[C@@H](CSCc1ccccc1)C(=O)N[C@@H](C(=O)OCC)c1ccccc1 ?
### Response F

### Prompt Would you mind telling me which call this test gave COc1ccc(Cn2cc3c(c2-c2ccccc2)CC(C)(C)c2cnoc2-3)cc1 ?
### Response F

### Prompt Would you mind telling me which call this test gave COc1nc2ccccc2cc1-c1nc2c(cnn2-c2ccc(Br)cc2)c(=O)[nH]1 ?
### Response F

### Prompt Would you mind telling me which call this test gave COC(=O)[C@H](C)NC(=O)NC(=O)NC(=O)CI ?
### Response F

### Prompt Would you mind telling me which call this test gave CC(=O)/C(C)=N/NC(=O)c1ccccc1O ?
### Response F

### Prompt Would you mind telling me which call this test gave COc1cc(/C=C/c2cc(/C=C/c3ccc(O)c(OC)c3)n(C(=O)Nc3ccc(F)c(Cl)c3)n2)ccc1O ?
### Response F

### Prompt Would you mind telling me which call this test gave NS(=O)(=O)c1ccc(N=Nc2c(O)[nH]c3ccc(-c4cnco4)cc23)cc1 ?
### Response F

### Prompt Would you mind telling me which call this test gave COc1cc2c(c(OC)c1OC)-c1ccc(OC)c(=O)cc1[C@@H](NC(=O)c1ccccc1)CC2 ?
### Response T

### Prompt Would you mind telling me which call this test gave CN(C)C(=O)c1cc2cnc(Nc3ccc(-c4csc5c(=S)cc(N6CCOCC6)oc45)cc3)nc2n1C1CCCC1 ?
### Response F

* * *

# Tested on: SN12C renal
# MEASUREMENT_DESCRIPTION: NCI tumour cell line growth inhibition, 48 h
MEASUREMENT_LABEL: TGI

### Prompt Would you kindly share the measured TGI for COC1=C(C)C(=O)c2c(c(COC(N)=O)c3n2CC2C3N2C)C1=O (stereo unspecified) ?
### Response 0.221 µM

### Prompt Would you kindly share the measured TGI for Nc1cc2[nH]c(=O)c(=O)[nH]c2cc1N ?
### Response > 100 µM

### Prompt Would you kindly share the measured TGI for COC1=CC(=O)c2nc(-c3cccc(C)n3)[nH]c2C1=O ?
### Response > 100 µM

### Prompt Would you kindly share the measured TGI for Cc1cc(S(=O)(=O)Nc2nnc(-c3ccccc3)c(-c3ccccc3)n2)c(SCC(N)=O)cc1Cl ?
### Response > 100 µM

### Prompt Would you kindly share the measured TGI for CN1CCC(O)(C(C)(C)C)CC1 ?
### Response > 100 µM

### Prompt Would you kindly share the measured TGI for COC(C(O)CO)C(O)C(O)C(=O)NNc1ccccc1 (stereo unspecified) ?
### Response > 100 µM

### Prompt Would you kindly share the measured TGI for CC(C)(C)c1cc(C(C)(C)C)cc(S(=O)(=O)Nc2cc3ccccc3cc2C(=O)NCCN)c1 ?
### Response 3.6 µM

### Prompt Would you kindly share the measured TGI for COc1ccc(Cn2cc3c(c2-c2ccccc2)CC(C)(C)c2cnoc2-3)cc1 ?
### Response > 100 µM

### Prompt Would you kindly share the measured TGI for N=C(N)c1ccc(C(NC(=O)CNS(=O)(=O)c2ccc3ccccc3c2)P(=O)(Oc2ccccc2)Oc2ccccc2)cc1 (stereo unspecified) ?
### Response > 100 µM

### Prompt Would you kindly share the measured TGI for COc1ccccc1CCc1cc(OC)c(OC)c(OC)c1 ?
### Response > 100 µM

### Prompt Would you kindly share the measured TGI for Cc1cc(S(=O)(=O)N=C2N(Cc3ccccc3)CCN2Cc2ccccc2)c(S)cc1Cl ?
### Response > 100 µM

* * *

# System: HCT-15 colon
# MEASUREMENT_DESCRIPTION: NCI tumour cell line growth inhibition, 48 h
Where a SMILES comes first, the peptide text is derived from it. [ ]: non-standard residue; d: D form. The star is where a group is joined. NMeF = CN[CH](Cc1ccccc1)C(=O)O; NMeV = CN[CH](C(=O)O)C(C)C; Boc = CC(C)(C)OC(=O)*
I'd be grateful if you could share measured TGI for these entries.

### Prompt Would you kindly share the measured TGI for COc1cccc2c1C(=O)c1c(O)c3c(c(O)c1C2=O)C[C@@](O)(C(C)=O)C[C@@H]3OC1OC(C)C(O)C(N)C1Br (some centres undefined) ?
### Response 0.78 µM

### Prompt Would you kindly share the measured TGI for NS(=O)(=O)c1ccc(N=Nc2c(O)[nH]c3ccc(-c4cnco4)cc23)cc1 ?
### Response > 25 µM

### Prompt Would you kindly share the measured TGI for COc1ccccc1CCc1cc(OC)c(OC)c(OC)c1 ?
### Response > 100 µM

### Prompt Would you kindly share the measured TGI for C(=Nc1ccc(-c2nc3ccccc3[nH]2)cc1)c1cccs1 ?
### Response > 100 µM

### Prompt Would you kindly share the measured TGI for COc1cc(Cn2c3c(c4cc(O)ccc42)Cc2ccccc2C3=O)cc(OC)c1 ?
### Response > 100 µM

### Prompt Would you kindly share the measured TGI for O=C(NC1=CC(=O)c2ccccc2C1=O)c1ccccc1 ?
### Response 5.6 µM

### Prompt Would you kindly share the measured TGI for CCOCc1nc2c(OC)cc(-c3nc4ccc(N5CCN(C)CC5)cc4[nH]3)c(OC)c2[nH]1 ?
### Response > 100 µM

### Prompt Would you kindly share the measured TGI for CC(C)C(NC(=O)OC(C)(C)C)C(=O)N(C)C(Cc1ccccc1)C(=O)N(C)C(C(=O)O)C(C)C (stereo not drawn) (Boc-Val-[NMeF]-[NMeV]-OH; configuration not given here) ?
### Response > 100 µM

### Prompt Would you kindly share the measured TGI for O=c1cc(-c2ccc(F)cc2)[nH]c2ncc(Cl)cc12 ?
### Response > 100 µM

### Prompt Would you kindly share the measured TGI for COc1cc(C=C2C(=O)NC(=O)NC2=O)cc(OC)c1OC ?
### Response > 100 µM

### Prompt Would you kindly share the measured TGI for COc1cc(/C=C(\C#N)C(N)=O)cc(Br)c1O ?
### Response > 100 µM

### Prompt Would you kindly share the measured TGI for Cc1ccc(C(=O)CN(/C=C/C(=O)C(F)(F)F)c2ccc(S(N)(=O)=O)cc2)cc1 ?
### Response > 100 µM

### Prompt Would you kindly share the measured TGI for CC1(C)SCc2nc3ncccc3n21 ?
### Response > 100 µM

### Prompt Would you kindly share the measured TGI for CC(=O)/C(C)=N/NC(=O)c1ccccc1O ?
### Response > 100 µM

### Prompt Would you kindly share the measured TGI for Cc1ccn2c(c1)nc1nc3ccccc3nc12 ?
### Response > 100 µM

### Prompt Would you kindly share the measured TGI for Cc1ccc(-c2c(C#N)c(-c3ccc(Cl)cc3)c(C#N)c(=O)n2NS(=O)(=O)c2ccc(C)cc2)cc1 ?
### Response > 100 µM

### Prompt Would you kindly share the measured TGI for CC1=NNC(N)=N/C1=C\C(Sc1ccc(Cl)cc1)c1ccc([N+](=O)[O-])cc1 (centres undefined) ?
### Response > 100 µM

### Prompt Would you kindly share the measured TGI for O=C1C2C3C=C4c5ccccc5N(c5ccccc5)C4(C2C(=O)N1Cc1ccccc1)C1C(=O)N(Cc2ccccc2)C(=O)C31 (centres undefined) ?
### Response > 100 µM

### Prompt Would you kindly share the measured TGI for O=C(N/N=C/c1ccccc1)c1c(-c2cccnc2)cnc2ccccc12 ?
### Response > 100 µM

### Prompt Would you kindly share the measured TGI for CCOC(=O)N/N=C(/N)c1cccc([N+](=O)[O-])c1 ?
### Response > 100 µM

### Prompt Would you kindly share the measured TGI for COC1C=CC(O)C(CO)O1 (centres undefined) ?
### Response > 100 µM

### Prompt Would you kindly share the measured TGI for COc1cc(CNCc2cc(OC)c(OC)c(OC)c2)cc(OC)c1OC ?
### Response > 10 µM

### Prompt Would you kindly share the measured TGI for CN1c2ccc(Cl)cc2C(=O)NC1c1ccc([N+](=O)[O-])s1 (centres undefined) ?
### Response 35.9 µM

### Prompt Would you kindly share the measured TGI for COc1cc(C(=O)N(Cc2cccnc2)C(=S)N(Cc2cccnc2)C(=O)c2cc(OC)c(OC)c(OC)c2)cc(OC)c1OC ?
### Response > 100 µM

### Prompt Would you kindly share the measured TGI for Cc1ccc(N=Nc2c(O)ccc3cc(S(=O)(=O)O)cc(S(=O)(=O)O)c23)cc1 ?
### Response > 100 µM

### Prompt Would you kindly share the measured TGI for NS(=O)(=O)c1ccc(NC2(C(=O)O)CCCC2)cc1 ?
### Response > 100 µM

### Prompt Would you kindly share the measured TGI for O=S(=O)(N=S(c1ccccc1)c1ccccc1)c1ccccc1 ?
### Response > 100 µM

### Prompt Would you kindly share the measured TGI for CC(=O)[O-].CCN(CC)c1ccc(C=NCCN=Cc2ccc(N(CC)CC)cc2[O-])c([O-])c1.[Mn+3] ?
### Response > 100 µM

### Prompt Would you kindly share the measured TGI for O=Cc1ccc(OCc2cccc(COc3ccc(/C=N\Nc4ccc([N+](=O)[O-])cc4[N+](=O)[O-])cc3)n2)cc1 ?
### Response > 100 µM
